test system: 521955-158-R2-J5-PDC complex spheroids, viability; test: Anticancer human tumor 521955-158-R2-J5-PDC patient-derived pancreatic carcinoma cell line growth inhibition [RAS]; conditions: second compound 0.03 µM; first compound 0.0316 µM; stronger effect = lower value;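 further: spheroids also contain HUVEC endothelial cells and mesenchymal stem cells as stroma; compound exposure lasted seven days before the viability read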
For each entry below, report its viability, T/C value.
Please respond with the number in % and leave the unit unwritten.

Entry under test: Cc1nc(N2CCC3(CC2)COC(C)C3N)c(CO)nc1Sc1ccnc(N)c1Cl (centres undefined) + CCn1c(-c2cccnc2C(C)OC)c2c3cc(ccc31)N1CCOC(CC(NC(=O)C(C(C)C)N(C)C(=O)C3(F)CCN(C(=O)C#CC(C)(C)N(C)C)CC3)C(=O)N3CCCC(N3)C(=O)OCC(C)(C)C2)C1 . Its viability, T/C was 83

Entry under test: C=CC(=O)N1CCN(c2nc(OCC3CCCN3C)nc3c(F)c(-c4nc(N)cc(C)c4C(F)(F)F)c(Cl)cc23)C(C)C1 (centres undefined) + CCn1c(-c2cc(N3CCN(C)CC3)cnc2C(C)OC)c2c3cc(ccc31)-c1csc(n1)CC(NC(=O)C1CC1C)C(=O)N1CCCC(N1)C(=O)OCC(C)(C)C2 . Its viability, T/C was 22.6

Entry under test: C=CC(=O)N1CCN(c2nc(OCC3CCCN3C)nc3c(F)c(-c4nc(N)cc(C)c4C(F)(F)F)c(Cl)cc23)C(C)C1 (centres undefined) + CCn1c(-c2cccnc2C(C)OC)c2c3cc(ccc31)N1CCOC(CC(NC(=O)C(C(C)C)N(C)C(=O)C3(F)CCN(C(=O)C#CC(C)(C)N(C)C)CC3)C(=O)N3CCCC(N3)C(=O)OCC(C)(C)C2)C1 . Its viability, T/C was 97.7

Entry under test: Nc1ccn(C2OC(CO)C(O)C2(F)F)c(=O)n1 (centres undefined) + CCn1c(-c2cccnc2C(C)OC)c2c3cc(ccc31)N1CCOC(CC(NC(=O)C(C(C)C)N(C)C(=O)C3(F)CCN(C(=O)C#CC(C)(C)N(C)C)CC3)C(=O)N3CCCC(N3)C(=O)OCC(C)(C)C2)C1 . Its viability, T/C was 69
